Tested on: M14 melanoma
protocol: NCI tumour cell line growth inhibition, 48 h
readout: TGI

The cases that follow already have their TGI on record.
compound: O=c1cc(N2CCCC2)[nH]c(=O)n1-c1ccc(F)cc1
TGI: > 100 µM
--
compound: COC(=O)c1c2c(cc3c1CC1(C3)Cc3cc4c(c(C(C)=O)c3C1)CCC4)C=CC2 (centres undefined)
TGI: > 31.6 µM
--
compound: CC1(c2cccc(N)c2)C2C(=O)NC(=O)C1C(=O)NC2=O (centres undefined)
TGI: > 100 µM

The record that follows has no TGI shown yet.
Asked: Request: TGI, test system M14 melanoma, entry c1cnc2c(c1)-n1cccc1C1(CCSC1)NN2 (centres undefined)
Given back: > 100 µM
